assay: logP determination by HPLC on reversed-phase column (EEC Directive 79/831 Annex V.A8); type: physicochemical; conditions: acidic range (pH 2.3), marked a); 0.1% aqueous phosphoric acid/acetonitrile gradient; reversed-phase C 18; 43° C.
Measured Property: logP

[
  {
    "Molecule": "CC(C)CC1=NN(C(=S)Nc2ccccc2)C(O)(C(F)(F)F)C1 (racemic)",
    "Result Value": "logP = 4.31^a)"
  },
  {
    "Molecule": "CCC1=NN(C(=S)Nc2ccc(OC(F)(F)F)cc2)C(O)(C(F)(F)F)C1 (stereo not drawn)",
    "Result Value": "logP = 4.31^a)"
  }
]

----------
assay: logP determination by HPLC on reversed-phase column (EEC Directive 79/831 Annex V.A8); type: physicochemical; settings: reversed-phase C18 HPLC column; acidic range (pH 2.3), marked a); 0.1% aqueous phosphoric acid/acetonitrile gradient; reversed-phase C 18; 43° C.
Entries and their chromatographic logP values follow.
Hey, just send me the number, nothing else.

Known results for compounds:
[
  {
    "Compound": "CC(C)C1=NN(C(=S)Nc2ccccc2)C(O)(C(F)(F)F)C1 (centres unmarked) [Example 27]",
    "chromatographic logP": 3.9
  },
  {
    "Compound": "CC(C)C1=NN(C(=S)Nc2ccccc2Cl)C(O)(C(F)(F)F)C1 (centres unmarked) [Example 20]",
    "chromatographic logP": 4.28
  },
  {
    "Compound": "CC(C)C1=NN(C(=S)NCCN2CCOCC2)C(O)(C(F)(F)F)C1 (centres unmarked) [Example 43]",
    "chromatographic logP": 1.45
  },
  {
    "Compound": "CC1=NN(C(=O)Nc2ccc(OC(F)(F)F)cc2)C(O)(C(F)(F)F)C1 (centres unmarked) [Example 46]",
    "chromatographic logP": 3.35
  },
  {
    "Compound": "CC(C)C1=NN(C(=S)Nc2c(Cl)cccc2Cl)C(O)(C(F)(F)F)C1 (centres unmarked) [Example 29]",
    "chromatographic logP": 4
  },
  {
    "Compound": "CCC1=NN(C(=S)NCc2ccccc2Cl)C(O)(C(F)(F)F)C1 (centres unmarked) [Example 56]",
    "chromatographic logP": 4.25
  },
  {
    "Compound": "Cc1ccc(NC(=O)N2N=C(C(C)(C)C)CC2(O)C(F)(F)F)cc1 (centres unmarked) [Example 70]",
    "chromatographic logP": 4.05
  },
  {
    "Compound": "CC(C)C1=NN(C(=S)NC2CCCCC2)C(O)(C(F)(F)F)C1 (centres unmarked) [Example 44]",
    "chromatographic logP": 4.94
  },
  {
    "Compound": "CC(C)C1=NN(C(=S)NCc2ccccc2Cl)C(O)(C(F)(F)F)C1 (centres unmarked) [Example 42]",
    "chromatographic logP": 4.58
  },
  {
    "Compound": "CC(C)C1=NN(C(=S)Nc2ccccc2[N+](=O)[O-])C(O)(C(F)(F)F)C1 (centres unmarked) [Example 31]",
    "chromatographic logP": 4.04
  }
]

// sample OC1(C(F)(F)F)CC(c2ccccc2)=NN1C(=S)Nc1ccc(Cl)cc1 (centres unmarked) [Example 83] , its chromatographic logP was 4.58

chromatographic logP in this record for CCC1=NN(C(=S)Nc2ccc(Cl)cc2)C(O)(C(F)(F)F)C1 (centres unmarked) [Example 53] : 4.07

For this compound ( CC1=NN(C(=S)NCCc2ccc(Cl)cc2)C(O)(C(F)(F)F)C1 (centres unmarked) [Example 126] ), measured chromatographic logP is 4.24

----------
A collection of compounds and their measured pest or weed control at 500 g/ha
tested on: caterpillars of the armyworm (Spodoptera frugiperda); experiment: Spodoptera frugiperda test (spray treatment); type: in vivo; conditions: Spodoptera frugiperda, 168 h; active compound concentration 500 g/ha; after 7 d; spray treatment; read-out: Kill rate in % after 7 d
Unit % implied. Number only.

Study these solved cases before continuing.
[
  {
    "Compound": "CC(C)C1=NN(C(=S)Nc2ccccc2)C(O)(C(F)(F)F)C1 (centres unmarked)",
    "Result Value": 100
  },
  {
    "Compound": "CC(C)CC1=NN(C(=S)Nc2ccccc2Cl)C(O)(C(F)(F)F)C1 (centres unmarked)",
    "Result Value": 100
  },
  {
    "Compound": "CC(C)C1=NN(C(=S)Nc2ccccc2F)C(O)(C(F)(F)F)C1 (centres unmarked)",
    "Result Value": 100
  },
  {
    "Compound": "CC(C)C1=NN(C(=S)Nc2ccccc2Cl)C(O)(C(F)(F)F)C1 (centres unmarked)",
    "Result Value": 100
  }
]

Fill in: caterpillars of the armyworm (Spodoptera frugiperda) pest or weed control at 500 g/ha for CC(C)C1=NN(C(=S)NCc2ccccc2Cl)C(O)(C(F)(F)F)C1 (centres unmarked) = 100

Form field, pest or weed control at 500 g/ha with caterpillars of the armyworm (Spodoptera frugiperda), item OC1(C(F)(F)F)CC(c2ccccc2)=NN1C(=S)Nc1ccc(Cl)cc1 (centres unmarked) : 100

----------
assay: logP determination by HPLC on reversed-phase column (EEC Directive 79/831 Annex V.A8); type: physicochemical; conditions: acidic range (pH 2.3), marked a); 0.1% aqueous phosphoric acid/acetonitrile gradient; reversed-phase C 18; 43° C.

[
  {
    "Compound": "CC(C)(C)C1=NN(C(=O)Nc2ccc(Cl)cc2)C(O)(C(F)F)C1 (stereo not drawn)",
    "logP": "logP = 3.72^a)"
  },
  {
    "Compound": "CC(C)CC1=NN(C(=O)Nc2ccccc2)C(O)(C(F)(F)F)C1 (racemic)",
    "logP": "logP = 3.72^a)"
  },
  {
    "Compound": "CC(C)(C)C1=NN(C(=O)NCc2ccccc2Cl)C(O)(C(F)(F)F)C1 (stereo not drawn)",
    "logP": "logP = 3.97^a)"
  },
  {
    "Compound": "O=C(Nc1ccc(Cl)cc1)N1N=C(c2ccccc2)CC1(O)C(F)(F)F (stereo not drawn)",
    "logP": "logP = 3.97^a)"
  }
]

----------
assay: logP determination by HPLC on reversed-phase column (EEC Directive 79/831 Annex V.A8); assay type: physicochemical; details: acidic range (pH 2.3), marked a); 0.1% aqueous phosphoric acid/acetonitrile gradient; reversed-phase C 18; 43° C.

[
  {
    "Compound": "CC(C)(C)C1=NN(C(=O)Nc2ccc(Cl)c(Cl)c2)C(O)(C(F)(F)F)C1 (stereo not drawn)",
    "logP": "logP = 4.62^a)"
  },
  {
    "Compound": "Cc1ccc(NC(=S)N2N=C(C(C)(C)C)CC2(O)C(F)(F)F)cc1 (stereo not drawn)",
    "logP": "logP = 4.62^a)"
  }
]

----------
system: greenhouse red spidermite (Tetranychus urticae); assay: Tetranychus test (OP-resistant/spray treatment); assay type: in vivo; conditions: Tetranychus urticae, 120 h; active compound concentration 100 g/ha; after 5 d; OP-resistant, spray treatment; read-out: Kill rate in % after 5 d
Measured Property: pest or weed control at 100 g/ha
Just so you know, I need the unit written after the number.

Example entries begin here.
[
  {
    "Compound": "CC(C)(C)C1=NN(C(=S)Nc2ccc(Cl)cc2)C(O)(C(F)(F)F)C1 (stereo not drawn)",
    "pest or weed control at 100 g/ha": "100%"
  },
  {
    "Compound": "CCC1=NN(C(=S)NCc2ccccc2Cl)C(O)(C(F)(F)F)C1 (stereo not drawn)",
    "pest or weed control at 100 g/ha": "90%"
  },
  {
    "Compound": "CC1=NN(C(=S)Nc2ccc(Cl)cc2Cl)C(O)(C(F)(F)F)C1 (stereo not drawn)",
    "pest or weed control at 100 g/ha": "90%"
  }
]

Briefly, pest or weed control at 100 g/ha measured for CC1=NN(C(=S)NCCc2ccc(Cl)cc2)C(O)(C(F)(F)F)C1 (stereo not drawn) : 90%

Lab note: measured pest or weed control at 100 g/ha of CCC1=NN(C(=S)NCc2ccccc2F)C(O)(C(F)(F)F)C1 (stereo not drawn) was 90%

Reported pest or weed control at 100 g/ha for CC(C)(C)C1=NN(C(=S)NCc2ccc(Cl)cc2)C(O)(C(F)(F)F)C1 (stereo not drawn) was 100%

Form: compound = CC(C)C1=NN(C(=S)Nc2ccccc2F)C(O)(C(F)(F)F)C1 (stereo not drawn) ; pest or weed control at 100 g/ha = 90%

Entry CC1=NN(C(=S)Nc2ccc(OC(F)(F)F)cc2)C(O)(C(F)(F)F)C1 (stereo not drawn) — recorded pest or weed control at 100 g/ha = 100%

Form field pest or weed control at 100 g/ha, entry CC(C)C1=NN(C(=S)Nc2ccccc2)C(O)(C(F)(F)F)C1 (stereo not drawn) : 90%

----------
assay: logP determination by HPLC on reversed-phase column (EEC Directive 79/831 Annex V.A8); type: physicochemical; settings: reversed-phase C18 HPLC column; acidic range (pH 2.3), marked a); 0.1% aqueous phosphoric acid/acetonitrile gradient; reversed-phase C 18; 43° C.
# strict inequality: chromatographic logP < 4 yields y, everything else yields n

Here are 8 molecules together with their reported answers.
[
  {
    "Molecule": "CCC1=NN(C(=S)Nc2ccccc2F)C(O)(C(F)(F)F)C1 (stereo not shown)",
    "Label Class": "y"
  },
  {
    "Molecule": "CCC1=NN(C(=S)Nc2ccc(OC)cc2)C(O)(C(F)(F)F)C1 (stereo not shown)",
    "Label Class": "y"
  },
  {
    "Molecule": "CC(C)(C)C1=NN(C(=S)Nc2ccccc2)C(O)(C(F)(F)F)C1 (stereo not shown)",
    "Label Class": "n"
  },
  {
    "Molecule": "CC1=NN(C(=S)Nc2ccc(OC(F)(F)F)cc2)C(O)(C(F)(F)F)C1 (stereo not shown)",
    "Label Class": "y"
  },
  {
    "Molecule": "CC(C)(C)C1=NN(C(=S)Nc2ccc(Cl)cc2)C(O)(C(F)(F)F)C1 (stereo not shown)",
    "Label Class": "n"
  },
  {
    "Molecule": "CCC1=NN(C(=S)Nc2ccccc2Cl)C(O)(C(F)(F)F)C1 (stereo not shown)",
    "Label Class": "y"
  },
  {
    "Molecule": "CC(C)CC1=NN(C(=S)Nc2ccc(OC(F)(F)F)cc2)C(O)(C(F)(F)F)C1 (stereo not shown)",
    "Label Class": "n"
  },
  {
    "Molecule": "CC(C)C1=NN(C(=S)Nc2ccccc2F)C(O)(C(F)(F)F)C1 (stereo not shown)",
    "Label Class": "y"
  }
]

# strict comparison: is reported chromatographic logP < 4? input = CC1=NN(C(=O)Nc2ccc(C(F)(F)F)cc2)C(O)(C(F)(F)F)C1 (stereo not shown)
y

Lab note: chromatographic logP threshold 4. Does this molecule come in strictly under it? CC1=NN(C(=S)Nc2c(F)cccc2F)C(O)(C(F)(F)F)C1 (stereo not shown)
y

Consider CCC1=NN(C(=O)Nc2ccc(OC(F)(F)F)cc2)C(O)(C(F)(F)F)C1 (stereo not shown) . Does its chromatographic logP lie strictly below 4?
y

Field: below-cutoff. Rule: recorded chromatographic logP strictly less than 4. Subject: CC(C)CC1=NN(C(=S)Nc2ccccc2Cl)C(O)(C(F)(F)F)C1 (stereo not shown)
n

chromatographic logP strictly < 4 for this molecule? CCC1=NN(C(=S)NCc2ccccc2F)C(O)(C(F)(F)F)C1 (stereo not shown)
y
